- TARGET: Sodium-dependent dopamine transporter (Homo sapiens) (UniProt Q01959)
- Sequence (Q01959 whole entry): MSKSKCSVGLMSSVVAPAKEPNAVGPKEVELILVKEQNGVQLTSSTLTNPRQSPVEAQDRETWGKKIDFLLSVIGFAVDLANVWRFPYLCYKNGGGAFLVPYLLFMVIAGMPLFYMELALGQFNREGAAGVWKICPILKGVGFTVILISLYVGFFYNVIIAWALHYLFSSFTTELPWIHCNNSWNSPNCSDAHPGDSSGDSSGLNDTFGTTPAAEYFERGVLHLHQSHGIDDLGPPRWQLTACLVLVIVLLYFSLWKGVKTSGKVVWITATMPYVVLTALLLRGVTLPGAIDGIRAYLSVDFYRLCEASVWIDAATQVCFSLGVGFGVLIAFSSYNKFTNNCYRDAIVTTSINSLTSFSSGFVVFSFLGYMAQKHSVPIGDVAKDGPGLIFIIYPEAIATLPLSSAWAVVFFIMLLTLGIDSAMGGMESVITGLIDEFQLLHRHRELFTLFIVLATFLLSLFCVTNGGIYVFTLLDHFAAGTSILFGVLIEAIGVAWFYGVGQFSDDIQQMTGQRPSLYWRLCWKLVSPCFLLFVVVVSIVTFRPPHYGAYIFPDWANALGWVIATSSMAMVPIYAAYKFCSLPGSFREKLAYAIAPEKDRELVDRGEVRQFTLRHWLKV
- TEST_DESCRIPTION: Displacement of [3H]BTCP from human DAT at 1 uM by CEREP assay
PROPERTY: inhibition
Answer format: number, then unit.

{"GIVEN_SMILES": "CCCN1CCC(c2coc3ccccc23)CC1", "inhibition": "34%"}
{"GIVEN_SMILES": "CCCN1CCC(c2noc3cc(F)ccc23)CC1", "inhibition": "15%"}
{"GIVEN_SMILES": "CCCN1CCC(c2cc3ccccc3s2)CC1", "inhibition": "67%"}
{"GIVEN_SMILES": "CCCN1CCC(c2ccc3ccccc3c2)CC1", "inhibition": "47%"}
{"GIVEN_SMILES": "CCCN1CCC(c2c[nH]c3cc(F)ccc23)CC1", "inhibition": "1%"}

Now for another entry.
Measured inhibition for this entry CCCN1CCC(n2c(=O)[nH]c3cc(Cl)ccc32)CC1 on Sodium-dependent dopamine transporter (Homo sapiens) (UniProt Q01959): 15%

###

- Organism: Homo sapiens
- TEST_DESCRIPTION: Selectivity ratio of Ki(app) for human low affinity Dopamine D2S receptor to Ki(app) for human high affinity Dopamine D2S receptor
Decision: Ratio Ki(app) >= 2 yields fulfilled, all other cases yield not fulfilled.

Worked examples follow.
{"GIVEN_SMILES": "CCCN1CCC(c2c[nH]c3cc(F)ccc23)CC1", "ASSIGNED_CLASS": "not fulfilled"}
{"GIVEN_SMILES": "CCCN1CCC(c2ccc3ccccc3c2)CC1", "ASSIGNED_CLASS": "not fulfilled"}
{"GIVEN_SMILES": "CCCN1CCC(n2ccc3ccccc32)CC1", "ASSIGNED_CLASS": "fulfilled"}
{"GIVEN_SMILES": "CCCN1CCC(c2cn(C)c3cc(F)ccc23)CC1", "ASSIGNED_CLASS": "not fulfilled"}
{"GIVEN_SMILES": "CCCN1CCC(c2n[nH]c3ccccc23)CC1", "ASSIGNED_CLASS": "fulfilled"}

Does the compound CCCN1CCC(N2C(=O)C(=O)c3ccccc32)CC1 have recorded Ratio Ki(app) that is 2 or more?
not fulfilled

Hi team, for CCCN1CCC(c2cn(C)c3ccc(F)cc23)CC1 , is the recorded Ratio Ki(app) at or above 2?
not fulfilled

###

- TARGET: D(2) dopamine receptor (Homo sapiens, UniProt P14416)
- Sequence (P14416 whole entry): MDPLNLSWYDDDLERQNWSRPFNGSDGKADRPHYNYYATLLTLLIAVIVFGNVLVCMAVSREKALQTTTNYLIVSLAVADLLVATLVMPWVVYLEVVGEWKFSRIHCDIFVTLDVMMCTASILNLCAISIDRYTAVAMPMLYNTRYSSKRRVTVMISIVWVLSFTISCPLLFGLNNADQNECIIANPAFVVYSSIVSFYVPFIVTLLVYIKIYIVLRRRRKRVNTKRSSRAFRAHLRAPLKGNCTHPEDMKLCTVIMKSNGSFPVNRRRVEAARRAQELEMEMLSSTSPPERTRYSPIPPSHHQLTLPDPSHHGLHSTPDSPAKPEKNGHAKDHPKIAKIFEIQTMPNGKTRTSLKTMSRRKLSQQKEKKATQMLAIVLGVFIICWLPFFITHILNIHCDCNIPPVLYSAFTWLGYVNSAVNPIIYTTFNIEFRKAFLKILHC
- TEST_DESCRIPTION: Displacement of [3H]7-OH-DPAT from human high affinity Dopamine D2S receptor by competition binding assay
PROPERTY: pKi
Formally, pKi is defined as -log10 of the concentration c, with c in mol/L.

{"GIVEN_SMILES": "CCCN1CCC(n2ccc3ccccc32)CC1", "ENDPOINT_VALUE": 6.96}
{"GIVEN_SMILES": "CCCN1CCC(n2cnc3ccccc32)CC1", "ENDPOINT_VALUE": 4.97}
{"GIVEN_SMILES": "CCCN1CCC(c2cn(C)c3ccc(F)cc23)CC1", "ENDPOINT_VALUE": 7.72}
{"GIVEN_SMILES": "CCCN1CCC(n2c(=O)[nH]c3cc(Cl)ccc32)CC1", "ENDPOINT_VALUE": 6.34}
{"GIVEN_SMILES": "CCCN1CCC(n2c(=O)n(C)c3cc(Cl)ccc32)CC1", "ENDPOINT_VALUE": 5.29}
{"GIVEN_SMILES": "CCCN1CCC(c2c[nH]c3cc(F)ccc23)CC1", "ENDPOINT_VALUE": 7.37}

Reported pKi of CCCN1CCC(c2coc3ccccc23)CC1 : 6.10

Lab book: pKi of CCCN1CCC(c2cn(C)c3cc(F)ccc23)CC1 noted as 6.80
